target: PN 200-110 binding sites in the rat brain; test: Binding affinity for PN 200-110 (DHP) binding sites in the rat brain; conditions: rat brain; PN 200-110 binding sites
pKi: −log10 of the molar value.
Assay Endpoint: pKi

Compound: COCCOC(=O)C1=C(C)NC(C)=C(C(=O)OC(C)C)C1c1cccc([N+](=O)[O-])c1 (stereo not drawn) [Nimodipine, nimodipine]
Target Or System: PN 200-110 binding sites in the rat brain
pKi: 8.62

[P] COC(=O)C1=C(C)NC(C)=C(C(=O)OCCN(C)Cc2ccccc2)C1c1cccc([N+](=O)[O-])c1 (stereo not drawn) [Nicardipine, nicardipine]
[Q] CO[C@H](COC(=O)C1=C(C)NC(C)=C(C(=O)OC(C)C)C1c1cccc(F)c1F)c1ccccc1 (stereo partly drawn) [Example 21]
Ask: From the items above, decide which of P and Q has the lower pKi reading. Answer by stating the label of the chosen item.
Result: P
(P: 7.49, Q: 7.89)
